# credit: the supplement of paper PMC9663587

Attribute: GRmax, 72 h
System: HCC1937
Assay: GRmax, 72 h; higher = less effect
Enter your answer as a number in GR; do not include the unit.

Solved entries (count: 2):
CC(=O)Nc1cccc(-n2c(=O)n(C3CC3)c(=O)c3c(Nc4ccc(I)cc4F)n(C)c(=O)c(C)c32)c1 (max 1 µM) : 0.689
CC(=O)c1c(C)c2cnc(Nc3ccc(N4CCNCC4)cn3)nc2n(C2CCCC2)c1=O (max 3.162 µM) : 1.08

// moving on: another record for GRmax, 72 h
Specify reported GRmax, 72 h for the compound shown: CN(C)C/C=C/C(=O)Nc1ccc(C(=O)Nc2cccc(Nc3cc(-c4c[nH]c5ccccc45)ncn3)c2)cc1 [THZ-P1-2] (max 10 µM)
-0.777

###

Property: GRmax, 72 h; scope: individual molecules
Tested on: BT549
Test: GRmax, 72 h; higher = less effect
Please reply with the bare figure in GR and do not write the unit itself.

Below, 3 molecules whose answers are already recorded.
CO[C@@H](C)Cn1c(=O)n(C)c2cnc3ccc(-c4cncc(C(C)(C)O)c4)cc3c21 (max 10 µM) : -0.0177
CCC(=O)Nc1ccc(C(=O)Nc2ccc(Nc3ncc4c(n3)N(C)c3ccc(C)cc3C(=O)N4C)cc2)cc1 : -0.0339
COc1cc2c(Oc3ccc4[nH]c(C)cc4c3F)ncnc2cc1OCCCN1CCCC1 [Cediranib/AZD2171] (max 10 µM) : -0.135

// below: GRmax, 72 h requested for another molecule
Fill in reported GRmax, 72 h for this entry: CCc1cnn2c(NCc3ccc[n+]([O-])c3)cc(N3CCCC[C@H]3CCO)nc12 (max 1 µM)
-0.292

###

Test system: SUM149
Test: GRmax, 72 h; higher = less effect
reported-property: GRmax, 72 h (GR)
The reply should contain only the number, in GR.

COc1cccc2c1C(=O)c1c(O)c3c(c(O)c1C2=O)C[C@@](O)(C(=O)CO)C[C@@H]3O[C@H]1C[C@H](N)[C@H](O)[C@H](C)O1 [Doxorubicin] (max 3.162 µM) : -0.321

Report GRmax, 72 h, nothing else, for this compound: CC(=O)c1c(C)c2cnc(Nc3ccc(N4CCNCC4)cn3)nc2n(C2CCCC2)c1=O (max 3.162 µM)
0.485

Query GRmax, 72 h for CNc1nc(-c2ccc3c(N)n[nH]c3c2)cc(N2C[C@@H](C(=O)NC3CCCCC3)CC[C@H]2C)n1 (max 10 µM)
0.698

###

System: HCC38
Assay: GRmax, 72 h; higher = less effect
reported-property: GRmax, 72 h (GR)
Number only, in GR; omit the unit.

Examples from the recorded data:
Cc1nc(-c2cn3c(n2)-c2ccc(-c4cnn(C(C)(C)C(N)=O)c4)cc2OCC3)n(C(C)C)n1 [Taselisib/GDC0032] (max 10 µM) : 0.0628
NC(=O)Nc1cc(-c2cccc(F)c2)sc1C(=O)N[C@H]1CCCNC1 [AZD7762] (max 10 µM) : -0.334
CCOc1cc2ncc(C#N)c(Nc3ccc(OCc4ccccn4)c(Cl)c3)c2cc1NC(=O)/C=C/CN(C)C [Neratinib/HKI272] (max 3.162 µM) : 0.457

Please look at this molecule and report its GRmax, 72 h: Nc1cc(C(F)(F)F)c(-c2cc(N3CCOCC3)nc(N3CCOCC3)n2)cn1 [Buparlisib/NVP-BKM120] (max 10 µM)
-0.276

State its GRmax, 72 h for this molecule: COc1cc2nccc(Oc3ccc(NC(=O)C4(C(=O)Nc5ccc(F)cc5)CC4)cc3)c2cc1OC [Cabozantinib] (max 10 µM)
0.301

Identify measured GRmax, 72 h corresponding to COc1ccc2c(c1)[C@]1(C[C@H]1c1ccc3c(/C=C/c4ccc(CN5C[C@@H](C)O[C@@H](C)C5)cc4)n[nH]c3c1)C(=O)N2
-0.403

Please indicate GRmax, 72 h recorded for CCc1cnn2c(NCc3ccc[n+]([O-])c3)cc(N3CCCC[C@H]3CCO)nc12 (max 1 µM)
-0.442

###

System: MDAMB157
Test: area over the GR curve, 72 h; higher = more effect
reported-property: area over the GR curve (GR)
Write the answer as a number in GR, unit excluded.

Example entries begin here.
CC(C)n1nc(-c2ccc3oc(N)nc3c2)c2c(N)ncnc21 [INK128/MLN0128] (max 3.162 µM) : 0.514
Cc1nc(NC(=O)N2CCC[C@H]2C(N)=O)sc1-c1ccnc(C(C)(C)C(F)(F)F)c1 [Alpelisib/BYL719] (max 10 µM) : 0.101

Report its area over the GR curve with MDAMB157 as the test system: CC(=O)Nc1cccc(-n2c(=O)n(C3CC3)c(=O)c3c(Nc4ccc(I)cc4F)n(C)c(=O)c(C)c32)c1 (max 1 µM)
0.301

State the measured area over the GR curve (MDAMB157) of COc1cc2nccc(Oc3ccc(NC(=O)C4(C(=O)Nc5ccc(F)cc5)CC4)cc3)c2cc1OC [Cabozantinib] (max 10 µM)
0.21

###

Tested on: SUM229PE
Test: GRmax, 72 h; higher = less effect
Entry flag: 1 if GRmax, 72 h reaches -0.009 GR; -1 if it does not.

As a guide, the following entries are already answered.
CO[C@H]1C[C@@H]2CC[C@@H](C)[C@@](O)(O2)C(=O)C(=O)N2CCCC[C@H]2C(=O)O[C@H]([C@H](C)C[C@@H]2CC[C@@H](OCCO)[C@H](OC)C2)CC(=O)[C@H](C)/C=C(\C)[C@@H](O)[C@@H](OC)C(=O)[C@H](C)C[C@H](C)/C=C/C=C/C=C/1C [Everolimus] (max 10 µM) : 1
CC[C@@H]1C(=O)N(C)c2cnc(Nc3ccc(C(=O)N[C@H]4CC[C@H](N5CCN(CC6CC6)CC5)CC4)cc3OC)nc2N1C(C)C [Volasertib/BI6727] (max 1 µM) : -1
CCOc1cc2ncc(C#N)c(Nc3ccc(OCc4ccccn4)c(Cl)c3)c2cc1NC(=O)/C=C/CN(C)C [Neratinib/HKI272] (max 3.162 µM) : 1
Nc1ccc(-c2ccc3ncc4ccc(=O)n(-c5cccc(C(F)(F)F)c5)c4c3c2)cn1 [Torin2] (max 1 µM) : 1

I'd appreciate it if you could say whether CCC(=O)Nc1ccc(C(=O)Nc2ccc(Nc3ncc4c(n3)N(C)c3ccc(C)cc3C(=O)N4C)cc2)cc1 has GRmax, 72 h at least equal to -0.009 GR.
-1

###

System: MDAMB453
Test: area over the GR curve, 72 h; higher = more effect
Decide using area over the GR curve: a value greater than or equal to 0.7 GR is 1, a smaller one is -1.

Example cases with answers are listed next.
CC(C)Nc1cc(-c2c[nH]c(C(=O)N[C@H](CO)c3cccc(Cl)c3)c2)c(Cl)cn1 [BVD523] (max 10 µM) : -1
COc1cccc(OCCCN)c1-c1cc(Nc2cnc(C#N)cn2)n[nH]1 : 1
CN(C)C/C=C/C(=O)Nc1ccc(C(=O)N2CCC[C@@H](Nc3ncc(Cl)c(-c4c[nH]c5ccccc45)n3)C2)cc1 [THZ531] (max 1 µM) : -1

hey, is area over the GR curve for this one >= 0.7 GR? CN(C)C/C=C/C(=O)Nc1ccc(O[C@@H]2CCC[C@@H](Nc3ncc(Cl)c(-c4c[nH]c5ccccc45)n3)C2)cc1 [BSJ-01-175] (max 10 µM)
1

Identify whether the reported area over the GR curve of the following compound is 0.7 GR or greater: O=C(c1cc(Cc2n[nH]c(=O)c3ccccc23)ccc1F)N1CCN(C(=O)C2CC2)CC1 [Olaparib/AZD2281] (max 10 µM)
-1

I'd appreciate it if you could say whether CCC(=O)Nc1ccc(C(=O)Nc2ccc(Nc3ncc4c(n3)N(C)c3ccc(C)cc3C(=O)N4C)cc2)cc1 [FMF-03-145-1] has area over the GR curve at least equal to 0.7 GR.
-1

###

Test system: HTERT_HME1
Assay: GRmax, 72 h; higher = less effect;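 note: breast cell lines in 384-well plates, nine doses across a 10^4 range, Dye Drop imaging of viable cells vs DMSO and time-zero plates, GR 0 means no net growth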
reported-property: GRmax, 72 h (GR)
# number only, unit GR dropped from output

// worked examples, GRmax, 72 h included
CC(=O)c1c(C)c2cnc(Nc3ccc(N4CCN(CCOCCOCCOCCNC(=O)COc5cccc6c5C(=O)N(C5CCC(=O)NC5=O)C6=O)CC4)cn3)nc2n(C2CCCC2)c1=O (centres undefined) [BSJ-03-123] (max 10 µM) : -0.153
CCC(=O)Nc1ccc(C(=O)Nc2ccc(Nc3ncc4c(n3)N(C)c3ccc(C)cc3C(=O)N4C)cc2)cc1 : -0.0813
CNC(=O)c1cccc(-c2ccc3c(N4CCOC[C@@H]4C)nc(N4CCOC[C@@H]4C)nc3n2)c1 [AZD2014] (max 10 µM) : 0.143

Tell me measured GRmax, 72 h for CS(=O)(=O)N1CCN(Cc2cc3nc(-c4cccc5[nH]ncc45)nc(N4CCOCC4)c3s2)CC1 [Pictilisib/GDC0941] (max 10 µM) please.
0.126

###

System: 184A1
Experiment: area over the GR curve, 72 h; higher = more effect;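 note: Dye Drop or Deep Dye Drop imaging of viable cells in 384-well plates (Hoechst nuclei, LIVE/DEAD dye), nine half-log doses, GR normalized to DMSO controls and time-zero plates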
reported-property: area over the GR curve

Below, each entry is followed by its recorded area over the GR curve result.
Cc1nc(NC(=O)N2CCC[C@H]2C(N)=O)sc1-c1ccnc(C(C)(C)C(F)(F)F)c1 [Alpelisib/BYL719] (max 10 µM) : 0.136 GR
CC1(N)CCN(c2cnc(-c3cccc(Cl)c3Cl)c(N)n2)CC1 [SHP099] (max 10 µM) : 0.118 GR
CNC(=O)c1cccc(-c2ccc3c(N4CCOC[C@@H]4C)nc(N4CCOC[C@@H]4C)nc3n2)c1 [AZD2014] (max 10 µM) : 0.729 GR
O=C1NC(=NCc2cccs2)SC1=Cc1ccc2ncccc2c1 [R0-3306] (max 10 µM) : 0.207 GR
Cc1nc(-c2cn3c(n2)-c2ccc(-c4cnn(C(C)(C)C(N)=O)c4)cc2OCC3)n(C(C)C)n1 [Taselisib/GDC0032] (max 10 µM) : 0.457 GR

Give the reported area over the GR curve for this molecule. C[C@@H]1COCCN1c1cc(C2([S@](C)(=N)=O)CC2)nc(-c2cc[nH]c3nccc2-3)n1 [AZD6738] (max 10 µM)
-0.0342 GR

Please report the measured area over the GR curve for COc1cc2nccc(Oc3ccc(NC(=O)C4(C(=O)Nc5ccc(F)cc5)CC4)cc3)c2cc1OC [Cabozantinib] (max 10 µM)
0.0128 GR
